- measured.on: UniProt O08786
- Sequence (O08786 whole entry): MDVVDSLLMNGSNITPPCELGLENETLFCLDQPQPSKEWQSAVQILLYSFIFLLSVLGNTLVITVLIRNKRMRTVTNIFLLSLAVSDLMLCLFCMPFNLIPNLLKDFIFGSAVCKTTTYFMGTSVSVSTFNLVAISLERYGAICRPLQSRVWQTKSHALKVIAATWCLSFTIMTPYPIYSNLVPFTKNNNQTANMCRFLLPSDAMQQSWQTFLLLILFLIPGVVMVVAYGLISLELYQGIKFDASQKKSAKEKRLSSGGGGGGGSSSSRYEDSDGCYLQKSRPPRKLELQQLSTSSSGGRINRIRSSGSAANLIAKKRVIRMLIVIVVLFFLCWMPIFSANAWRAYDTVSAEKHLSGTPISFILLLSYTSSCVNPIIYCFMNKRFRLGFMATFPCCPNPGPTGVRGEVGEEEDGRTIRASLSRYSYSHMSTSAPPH
- assay.overview: Inhibitory activity against Cholecystokinin type A receptor
endpoint.label: IC50 (µM)
Numbers only, in µM.

> print(dat)
                                   molecule  observed
1  CN1C(=O)[C@H](NC(=O)Nc2cccc(CC(=O)NCCC(=O)NCCSCc3csc(N=C(N)N)n3)c2)N=C(c2ccccc2)c2ccccc21      0.12

Please give IC50, item by item, for the list that follows.
1. CN1C(=O)[C@H](NC(=O)Nc2cccc(CC(=O)NCCCCCC(=O)NCCSCc3csc(N=C(N)N)n3)c2)N=C(c2ccccc2)c2ccccc21
2. Cc1cccc(NC(=O)NC2N=C(c3cccc(OCC(=O)NCCSCc4csc(N=C(N)N)n4)c3)c3ccccc3N(C)C2=O)c1 (centres undefined)
3. Cc1cccc(NC(=O)N[C@@H]2N=C(c3ccccc3)c3ccccc3N(C)C2=O)c1 [L-365260]

Result ::
1: 0.19; 2: 5.4; 3: 11.1

###

- measured.on: Cholecystokinin receptor (Mus musculus) (UniProt O08786+P56481)
- assay.overview: Ratio of IC50(gastrin) to IC50(CCK-A)
- Assay type: protein assay
endpoint.label: Ratio
Answers are plain numbers.

> print(dat)
                                   compound  endpoint.label  observed
1  CN1C(=O)[C@H](NC(=O)Nc2cccc(CC(=O)NCCC(=O)NCCSCc3csc(N=C(N)N)n3)c2)N=C(c2ccccc2)c2ccccc21           Ratio       1.5
2  CN1C(=O)[C@H](NC(=O)Nc2cccc(CC(=O)NCCSCc3csc(N=C(N)N)n3)c2)N=C(c2ccccc2)c2ccccc21           Ratio       3.4
3  CN1C(=O)[C@H](NC(=O)Nc2cccc(C(=O)NCCSCc3csc(N=C(N)N)n3)c2)N=C(c2ccccc2)c2ccccc21           Ratio         1

Lab note: next compound to report on.
Query :: Could you tell me which Ratio is on file for Cc1cccc(NC(=O)NC2N=C(c3cccc(OCC(=O)NCCCCCC(=O)NCCCOc4cccc(CN5CCCCC5)c4)c3)c3ccccc3N(C)C2=O)c1 (centres undefined) ?
Result :: 112

###

- measured.on: Histamine H2 receptor (Rattus norvegicus, UniProt P25102)
- Sequence (P25102 whole entry): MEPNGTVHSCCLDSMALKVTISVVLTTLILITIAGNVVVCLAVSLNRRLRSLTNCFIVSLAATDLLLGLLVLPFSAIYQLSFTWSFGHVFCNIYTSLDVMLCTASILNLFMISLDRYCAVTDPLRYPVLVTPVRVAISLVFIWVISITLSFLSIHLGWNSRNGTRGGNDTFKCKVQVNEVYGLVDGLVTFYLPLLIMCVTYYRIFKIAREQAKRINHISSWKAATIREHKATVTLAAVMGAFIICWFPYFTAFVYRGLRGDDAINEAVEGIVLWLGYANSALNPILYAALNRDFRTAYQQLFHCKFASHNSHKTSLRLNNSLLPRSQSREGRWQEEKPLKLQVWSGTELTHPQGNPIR
- assay.overview: Antagonistic activity for inhibition of histamine H2 receptor from anesthetized rats
- Assay type: functional
- conditions.used: read-out: pA2 (converted)
Consider the following molecules; for each one, report its Kb.
One number for each entry, in µM.

Solved cases below.
> print(dat)
                                   molecule  endpoint.label  observed
1  Cc1cccc(NC(=O)NC2N=C(c3ccccc3)c3ccccc3N(CC(=O)NCCC(=O)NCCSCc3csc(N=C(N)N)n3)C2=O)c1 (centres undefined)              Kb      1.26
2  Cc1cccc(NC(=O)NC2N=C(c3cccc(OCC(=O)NCCCCCC(=O)NCCCOc4cccc(CN5CCCCC5)c4)c3)c3ccccc3N(C)C2=O)c1 (centres undefined)              Kb     0.631
3  Cc1cccc(NC(=O)NC2N=C(c3cccc(OCC(=O)NCCCC(=O)NCCSCc4csc(N=C(N)N)n4)c3)c3ccccc3N(C)C2=O)c1 (centres undefined)              Kb     0.631
4  Cc1cccc(NC(=O)NC2N=C(c3cccc(OCC(=O)NCCC(=O)NCCSCc4csc(N=C(N)N)n4)c3)c3ccccc3N(C)C2=O)c1 (centres undefined)              Kb     0.794
5  Cc1cccc(NC(=O)NC2N=C(c3ccccc3)c3ccccc3N(CC(=O)NCCCCCC(=O)NCCCOc3cccc(CN4CCCCC4)c3)C2=O)c1 (centres undefined)              Kb     0.398
6  CN1C(=O)[C@H](NC(=O)Nc2cccc(CC(=O)NCCCCCC(=O)NCCSCc3csc(N=C(N)N)n3)c2)N=C(c2ccccc2)c2ccccc21              Kb         1

Field: Kb. Fill in for each record below.
1. Cc1cccc(NC(=O)NC2N=C(c3ccccc3)c3ccccc3N(CC(=O)NCC(=O)NCCSCc3csc(N=C(N)N)n3)C2=O)c1 (centres undefined)
2. Cc1cccc(NC(=O)NC2N=C(c3cccc(OCC(=O)NCCSCc4csc(N=C(N)N)n4)c3)c3ccccc3N(C)C2=O)c1 (centres undefined)
3. Cc1cccc(NC(=O)NC2N=C(c3ccccc3)c3ccccc3N(CC(=O)NCCC(=O)NCCCOc3cccc(CN4CCCCC4)c3)C2=O)c1 (centres undefined)
4. Cc1cccc(NC(=O)NC2N=C(c3cccc(OCC(=O)NCCCC(=O)NCCCOc4cccc(CN5CCCCC5)c4)c3)c3ccccc3N(C)C2=O)c1 (centres undefined)

Result ::
3.98
5.01
0.794
0.316

Query :: Endpoint output: Kb of Cc1cccc(NC(=O)NC2N=C(c3ccccc3)c3ccccc3N(CC(=O)NCC(=O)NCCCOc3cccc(CN4CCCCC4)c3)C2=O)c1 (centres undefined) . Value?
Result :: 6.31

###

Consider the following molecules; for each one, report its log10(IC50).
- measured.on: UniProt:O08786
- Sequence (O08786 whole entry): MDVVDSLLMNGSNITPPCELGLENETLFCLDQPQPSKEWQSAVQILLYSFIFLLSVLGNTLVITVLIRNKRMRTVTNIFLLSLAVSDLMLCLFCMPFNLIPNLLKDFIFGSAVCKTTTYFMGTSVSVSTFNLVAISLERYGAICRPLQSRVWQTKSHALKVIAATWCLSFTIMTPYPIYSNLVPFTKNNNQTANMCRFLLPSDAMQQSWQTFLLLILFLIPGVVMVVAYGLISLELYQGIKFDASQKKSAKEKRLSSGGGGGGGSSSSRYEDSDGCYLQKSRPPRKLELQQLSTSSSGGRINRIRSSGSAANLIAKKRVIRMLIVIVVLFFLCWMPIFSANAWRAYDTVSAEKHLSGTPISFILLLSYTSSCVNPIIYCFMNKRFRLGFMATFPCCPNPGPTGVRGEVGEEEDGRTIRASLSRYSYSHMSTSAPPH
Kindly note that the scale is log10 and the underlying IC50 is in nM.

> print(dat)
                                   molecule  observed
1  Cc1cccc(NC(=O)NC2N=C(c3ccccc3)c3ccccc3N(CC(=O)NCCCC(=O)NCCCOc3cccc(CN4CCCCC4)c3)C2=O)c1 (stereo not drawn)      2.95

Below are some molecules; for each one, tell me its log10(IC50).
1. Cc1cccc(NC(=O)NC2N=C(c3cccc(OCC(=O)NCC(=O)NCCSCc4csc(N=C(N)N)n4)c3)c3ccccc3N(C)C2=O)c1 (stereo not drawn)
2. Cc1cccc(NC(=O)NC2N=C(c3ccccc3)c3ccccc3N(CC(=O)NCCSCc3csc(N=C(N)N)n3)C2=O)c1 (stereo not drawn)
3. Cc1cccc(NC(=O)NC2N=C(c3ccccc3)c3ccccc3N(CC(=O)NCCCOc3cccc(CN4CCCCC4)c3)C2=O)c1 (stereo not drawn)

Result ::
1. 3.04
2. 3.68
3. 3.76

###

- measured.on: UniProt:P25102
- assay.overview: Antagonistic activity for inhibition of histamine H2 receptor from anesthetized rats
- Type: functional
- conditions.used: read-out: pA2 (converted)
endpoint.label: Kb

Below, each entry is followed by its recorded Kb result.
> print(dat)
                                   compound  endpoint.label    observed
1  Cc1cccc(NC(=O)NC2N=C(c3cccc(OCC(=O)NCCC(=O)NCCCOc4cccc(CN5CCCCC5)c4)c3)c3ccccc3N(C)C2=O)c1 (centres undefined)              Kb      501 nM
2  CN1C(=O)[C@H](NC(=O)Nc2cccc(C(=O)NCCSCc3csc(N=C(N)N)n3)c2)N=C(c2ccccc2)c2ccccc21              Kb  > 10000 nM
3  CN1C(=O)[C@H](NC(=O)Nc2cccc(CC(=O)NCCC(=O)NCCSCc3csc(N=C(N)N)n3)c2)N=C(c2ccccc2)c2ccccc21              Kb      398 nM

Now consider the entry below.
Query :: What measured Kb goes with Cc1cccc(NC(=O)NC2N=C(c3cccc(OCC(=O)NCC(=O)NCCCOc4cccc(CN5CCCCC5)c4)c3)c3ccccc3N(C)C2=O)c1 (centres undefined) ?
Result :: 501 nM

Numbers sourced from ChEMBL document CHEMBL1153688.
